# System: Human immunodeficiency virus 1
# experimental details: Reduction of viral load in the cell supernatant.
# Format: functional, organism-based
pIC50: −log10 of the molar value.
Values of pIC50 greater than or equal to 5 map to Condition met; values below map to Condition not met.

See these solved cases before continuing.
compound | measurement target | group
O=C(O)c1cccc2nc(/C=C/c3ccc(O)c(O)c3)ccc12 | Human immunodeficiency virus 1 | Condition not met
COc1cc(/C=C/c2ccc3ccc(C(=O)O)c(O)c3n2)ccc1O | Human immunodeficiency virus 1 | Condition met

Q) Is reported pIC50 greater than or equal to 5 here: O=C(O)c1cc(/C=C/c2ccc3ccc(C(=O)O)c(O)c3n2)ccc1O
A) Condition not met

Q) Does the molecule O=C(O)c1ccc2ccc(/C=C/c3ccc(O)c(O)c3)nc2c1O have recorded pIC50 that is 5 or more?
A) Condition met

Q) Assess whether reported pIC50 for O=C(O)c1cc(C(=O)O)c2ccc(/C=C/c3ccc(O)c(O)c3)nc2c1 sits at 5 or higher.
A) Condition not met

Q) Is pIC50 for O=C(O)c1ccc2ccc(/C=C/c3ccc(CO)cc3)nc2c1O at or above 5?
A) Condition not met

Q) Please indicate if the recorded pIC50 for COc1cc(/C=C/c2ccc3ccc(C(=O)O)cc3n2)ccc1O meets or exceeds 5.
A) Condition not met

Q) I'd appreciate it if you could say whether O=C(O)c1ccc2nc(/C=C/c3ccc(O)c(O)c3)ccc2c1 has pIC50 at least equal to 5.
A) Condition not met

Q) Given the entry Nc1ccc(/C=C/c2ccc3ccc(C(=O)O)c(O)c3n2)cc1 , answer whether its pIC50 meets or surpasses 5.
A) Condition not met

Q) Reported pIC50 at or above 5? O=C(O)c1ccc2ccc(/C=C/c3ccc(O)cc3O)nc2c1O
A) Condition not met

These measurements were taken from ChEMBL document CHEMBL1135622.
